The entries below come with measured melting point values attached.

Below are worked cases with known answers.
> print(dat)
                                   molecule  observed.value
1   N#Cc1cnc2c(sc3ccccc32)c1Nc1ccc(Cl)cc1Cl   260 to 262 °C
2                    Nc1cc(=O)[nH]c2ccccc12        > 250 °C
3                   O=c1ccc2ccc(Br)cc2[nH]1          295 °C
4  O=C(O)C1=Cc2cc(Cl)cc(C#Cc3ccccc3)c2OC1C(F)(F)F (configuration not stated)   190 to 192 °C
5                       COCCOc1ccc(C=O)cc1O     74 to 75 °C
6  O=[N+]([O-])c1ccc(C=Nc2c3c(nc4ccccc24)CCCC3)cc1   237 to 238 °C

Sure, the documented melting point for "Cc1ccc(/C=C/c2ccccc2[N+](=O)[O-])c([N+](=O)[O-])c1" is 170 to 171 °C

Sure, the documented melting point for "CC1(CC(=O)Nc2cccc3ncccc23)CCCCC1" is 133 to 135 °C

Sure, the documented melting point for "COc1cc2c(cc1OC)CN(CCNc1ccc(NC(=O)c3cccc4c(=O)c5cccc(OC)c5[nH]c34)cc1)CC2" is 228 to 234 °C

Sure, the documented melting point for "O=C(Cn1c(-c2ccc(Cl)cc2)nc2cccnc21)NC1=NCCS1" is 227 to 229 °C

Sure, the documented melting point for "O=C1CC=C(c2c[nH]c3cc([N+](=O)[O-])ccc23)CC1" is 175 to 177 °C

Sure, the documented melting point for "CC1(C)C(=O)C(C)(C)c2cc(CCN3CCN(c4nsc5ccccc45)CC3)ccc21" is 122 to 126 °C

Sure, the documented melting point for "O=C(O)c1ccc2ccccn2c1=O" is 235 to 240 °C

Sure, the documented melting point for Cc1cc(C2(C(F)(F)C(F)(F)C(F)(F)F)CC(c3ccc(Cl)cc3)=NO2)ccc1NC(=O)c1cccc(I)c1C(=O)NC(C)C (configuration not stated) is 156 to 158 °C

Sure, the documented melting point for "CC(=O)Nc1nc(CCc2ccc(CON)cc2)cs1" is 130 °C

Sure, the documented melting point for CC(=O)OC1CSC(Oc2cnc(-c3ccccc3)c(F)c2)C(OC(C)=O)C1OC(C)=O (configuration not stated) is 160 to 162 °C

Sure, the documented melting point for CC#CCOc1ccc(S(=O)(=O)NC(CO)C(=O)OC)cc1 (configuration not stated) is 72 to 74 °C

Sure, the documented melting point for "N#Cc1cnn2c1N(C(=O)CCl)CC=C2c1cccc(C(F)(F)F)c1" is 179 to 181 °C

Sure, the documented melting point for "CCCCn1c(=O)c(NC(=O)Nc2c(C(C)C)cc(CO)cc2C(C)C)c(-c2cccc(OC)c2)c2cccnc21" is 122 to 123 °C

Sure, the documented melting point for "Cn1cc(C#N)c(=O)c2cc3cc(F)c(F)cc3nc21" is 380 °C

###

measured.metric: melting point

> print(dat)
                                   molecule  observed.value
1  CC1(COc2ccc(CC3SC(=O)NC3=O)cc2)CCc2cc(C(=O)O)ccc2O1 (centres undefined)   223 to 225 °C
2    CCCCn1ccc2cc(-c3ccc(C(F)(F)F)cc3)ccc21     52 to 53 °C
3                      CCCc1nc2c(nc1O)CCCC2   131 to 133 °C
4  C[C@@H]1C[C@@H]([C@H](CC2CCCCC2)NC(=O)[C@H](Cc2cscn2)NC(=O)OC(C)(C)C)OC1=O   118 to 120 °C
5  COc1ccc(S(=O)(=O)C(Cl)(Cl)S(=O)(=O)N(C)C)cc1   145 to 147 °C

Sure, the documented melting point for "CCOC(=O)c1cc2cccc(NS(=O)(=O)c3ccsc3C(=O)OC)c2[nH]1" is 173 to 174 °C

Sure, the documented melting point for CC1(C(=O)O)CCCc2c(-c3ccc(Cl)cc3)noc2C1 (centres undefined) is 232 to 235 °C

Sure, the documented melting point for "CCOC(=O)COc1ccc(-c2nc3ncccc3[nH]2)c(O)c1" is 198 °C

Sure, the documented melting point for O=[N+]([O-])c1ccc(C(Nc2ccccc2)P(=O)(Oc2ccccc2)Oc2ccccc2)cc1 (centres undefined) is 158 to 160 °C

###

measured.metric: melting point

Sure, the documented melting point for "O=c1[nH][nH]c(=O)n1CCCl" is 192 to 193 °C

Sure, the documented melting point for "Nc1c(CC(=O)N2CCOCC2)cccc1C(=O)c1ccccc1" is 156 to 158 °C

Sure, the documented melting point for "C=C[C@]1(C)CCc2c(C)c(OCc3ccccc3)c(C)c(C)c2O1" is 63 to 66 °C

Sure, the documented melting point for Cc1c(C)c2c(c(C)c1NC(=O)CC(C)(C)C)C(c1ccccn1)C(C)(C)O2 (centres undefined) is 210 to 212 °C

Sure, the documented melting point for CCCc1ccccc1OCC(O)COc1cccc2oc(C(=O)O)cc(=O)c12 (centres undefined) is 168 to 170 °C

Sure, the documented melting point for CCC1COC(=NO)C(=O)N1C (centres undefined) is 168 to 170 °C

Sure, the documented melting point for CCC(C)c1ccc(OC(C)=O)c(C2(OC(C)=O)C(=O)c3ccccc3C2=O)c1 (centres undefined) is 118 to 120 °C

Sure, the documented melting point for "CCCCc1nc(C=O)c(Br)[nH]1" is 113 °C

Sure, the documented melting point for O=C1NC=NC2CN=C(c3ccccc3)c3cc(Cl)ccc3C12 (centres undefined) is 150 to 155 °C

Sure, the documented melting point for "CCOCCC(=O)C=P(c1ccccc1)(c1ccccc1)c1ccccc1" is 63 to 65 °C

###

measured.metric: melting point

Below are worked cases with known answers.
> print(dat)
                                   compound  observed.value
1  O=C(C(Cl)Cl)N1CCN(c2ccc([N+](=O)[O-])cc2)CC1          155 °C
2  Cc1nnc(COc2ccc(NC(=O)/C=C/c3cnn(C)c3-c3ccc(F)cc3)cc2)o1   117 to 118 °C
3  O=C(NCc1ccc(Cl)cc1)c1cn2c(CO)cc3cc(CN4CCOCC4)cc(c1=O)c32   210 to 212 °C
4                  c1cnc2c(c1)nnn2-c1ccncc1   196 to 198 °C
5  CS(=O)(=O)NCCCCn1c(CO)nc2c(N)nc3ccccc3c21   216 to 219 °C

Sure, the documented melting point for "CC1(C)C(N)C(C)(C)S1(=O)=O" is 104 to 106 °C

Sure, the documented melting point for CC(C)(C)c1cc(C2SCC(=O)N2CCCBr)cc(C(C)(C)C)c1O (centres undefined) is 130 to 131 °C

Sure, the documented melting point for "CCOC(=O)C(=C1NCCCS1)[N+](=O)[O-]" is 100 to 102 °C

Sure, the documented melting point for "FC(F)(F)c1ccc(-c2cc(Cl)c3ccccc3n2)cc1" is 53 to 55 °C

Sure, the documented melting point for "Nc1ccc(CNC(=O)OCc2ccccc2)cc1" is 60 to 64 °C

Sure, the documented melting point for "CCOCCNc1nc(C)c(CCO)c(=O)n1C" is 194 °C

Sure, the documented melting point for "Cc1[nH]c(=O)ccc1-c1ccc2nccn2c1" is 290 to 292 °C

###

The entries below come with measured melting point values attached.

> print(dat)
                                   compound  observed.value
1  N#Cc1ccc(C(=O)c2ccc(OC3OC(CO)C(O)C(O)C3O)cc2)cc1 (stereo unspecified)          122 °C

Proceeding to the next compound to report its melting point.
Sure, the documented melting point for OC1CSC(Oc2cncc(-c3ccc(C(F)(F)F)cc3)c2)C(O)C1O (stereo unspecified) is 218 to 219 °C

###

measured.metric: melting point

Below are worked cases with known answers.
> print(dat)
                                   molecule  measured.metric  observed.value
1                  O=C(Cl)C=Cc1c(Cl)cccc1Cl    melting point   64.5 to 66 °C
2  COc1ccc(CN2CCC(c3cn(Cc4ccc(Cl)s4)c4cc(F)ccc34)CC2)cc1C(=O)O    melting point   232 to 236 °C
3  COC1(c2cccc(OCc3ccc(-n4ccnc4C)cc3F)c2)CCOCC1    melting point   121 to 122 °C

Sure, the documented melting point for CCOC1=CCC(NC(C)=O)CC1 (stereo not drawn) is 100 to 102 °C

Sure, the documented melting point for "O=C(O)c1cc(NCc2c(F)c(F)c(C(F)(F)F)c(F)c2F)ccc1OC(F)(F)F" is 38 °C

Sure, the documented melting point for "Nc1ccc2c(c1)CNCCS2" is 110 to 111 °C

Sure, the documented melting point for "CS(=O)(=O)c1ccc(-c2cc(C(F)F)nn2-c2cccc(C(F)(F)F)c2)cc1F" is 110 to 111 °C

Sure, the documented melting point for COC(=O)NC(Cc1c[nH]c2ccccc12)C(=O)OCc1cc(C)cc(C)c1 (stereo not drawn) is 128 to 129 °C

Sure, the documented melting point for "CCOC(=O)C(CCCc1ccccc1CP(=O)(OCC)OCC)(NC(C)=O)C(=O)OCC" is 76 to 79 °C

Sure, the documented melting point for COc1cccc2c1CCC1C(=O)OC(=O)C21 (stereo not drawn) is 138 to 140 °C

Sure, the documented melting point for "CCCCN(Cc1ccc(-c2ccccc2-c2nc(=O)o[nH]2)cc1)c1ncccc1C(=O)O" is 95 to 98 °C

Sure, the documented melting point for "COc1ccc2cc(-c3ncn[nH]3)ccc2n1" is 198 to 200 °C

Sure, the documented melting point for "CC(C)CNC(=O)C(C)(C)c1ccc(-c2cccn2C)cc1" is 59 to 60 °C

Sure, the documented melting point for COC(SC)C(=O)c1[nH]c2cc(Br)c(Cl)cc2c1-c1ccccc1 (stereo not drawn) is 145 to 147 °C

Sure, the documented melting point for COc1ccc(F)cc1C(=O)NC1COc2cc(OC)c(S(N)(=O)=O)cc2C1 (stereo not drawn) is 209 to 210 °C

Sure, the documented melting point for "CC(=O)Nc1cc(Cn2c(C(=O)c3cc(C)cc(Cl)c3)c(C(C)C)c(=O)[nH]c2=O)ccn1" is 241 to 243 °C

Sure, the documented melting point for CCOC(=O)C1=C(C)Nc2nc(N)nc(N)c2C1c1ccc(Cl)c(Cl)c1 (stereo not drawn) is 244 °C
